Test system: longitudinal muscle of human vas deferens
Test: IC50 against contractions evoked by high K+ (120 mM) in the presence of FPL 64176, longitudinal muscle strips
Details: contractions evoked by K+ (120 mM) in the presence of FPL 64176 (1 μM); means ± S.E.M.
Method: Human vas deferens specimens were obtained after elective vasectomies of healthy fertile men. College ethical approval and the consent of patients were obtained. […] Contractile responses were recorded via a Harvard-type force-displacement transducer. […]
readout.name: IC50
Answer as a quantity: numeral, then unit.

Recorded IC50 (compound CN1CCCCC1CCN1c2ccccc2Sc2ccc(S(C)(=O)=O)cc21 (stereo not shown) ): 15.9 µM

###

Provide the reported log10 IC50 of each item.
system: longitudinal muscle of human vas deferens; test: IC50 against contractions evoked by high K+ (120 mM) in the presence of FPL 64176, longitudinal muscle strips; conditions: Homo sapiens; contractions evoked by K+ (120 mM) in the presence of FPL 64176 (1 μM); means ± S.E.M.
Counter-ions that a name gives are not always drawn.
Response schema: value (number) is log10 of IC50 in units of µM.

Recorded log10 IC50 (compound COCC(=O)O[C@]1(CCN(C)CCCc2nc3ccccc3[nH]2)CCc2cc(F)ccc2[C@@H]1C(C)C ): 0.04

Recorded log10 IC50 (compound CN1CCN(CCCN2c3ccccc3Sc3ccc(C(F)(F)F)cc32)CC1 [Trifluoperazine, trifluoperazine dihydrochloride] ): 1.32

Recorded log10 IC50 (compound COC(=O)C1=C(C)NC(C)=C(C(=O)OC)C1c1ccccc1[N+](=O)[O-] ): -2.67

Recorded log10 IC50 (compound CN(C)CCCN1c2ccccc2Sc2ccc(Cl)cc21 [Chlorpromazine, chlorpromazine hydrochloride] ): 1.09

Recorded log10 IC50 (compound CC(NCCC(c1ccccc1)c1ccccc1)c1ccccc1 (stereo not drawn) [Fendiline, fendiline hydrochloride] ): 0.58

Recorded log10 IC50 (compound O=c1[nH]c2ccccc2n1C1CCN(CCCC(c2ccc(F)cc2)c2ccc(F)cc2)CC1 [Pimozide, pimozide] ): 0.64

###

test system: circular muscle of human vas deferens; test: IC50 against contractions evoked by high K+ (120 mM) in the presence of FPL 64176, circular muscle rings; conditions: contractions evoked by K+ (120 mM) in the presence of FPL 64176 (1 μM); means ± S.E.M.
readout.name: pIC50
Please treat pIC50 as minus the base-10 logarithm of the molar concentration.

Recorded pIC50 (compound CN1CCCCC1CCN1c2ccccc2Sc2ccc(S(C)(=O)=O)cc21 (stereo not shown) [Sulphoridazine, sulphoridazine] ): 4.85
